The entries below come with measured In-vivo % Inhibition (of increases in plasma cholesterol concentrations) values attached.
System: plasma cholesterol
Experiment: In vivo inhibition of increases in plasma cholesterol concentrations in rats fed a cholesterol-supplemented diet
Design: species or system rat
Conditions: diet supplemented with cholesterol/cholic acid and 0.03% w/w test compound, after 3 days, relative to control animals fed cholesterol diet without drug
REPORTED_PROPERTY: In-vivo % Inhibition (of increases in plasma cholesterol concentrations) (%)

* CCCCCCCCCCOc1ccc(C(=O)Nc2cc(C(=O)NCCCC)ccc2SC)cc1 [B] | 92
* CCCCCCCCCCOc1ccc(C(=O)Nc2cc(C(=O)NCCSC)ccc2SC)cc1 [C] | 91
* CCCCCCCCCCOc1ccc(C(=O)Nc2cc(C(=O)NCCOC)ccc2SC)cc1 [Compound A] | 100
* CCCCCCCCCCSc1ccc(C(=O)Nc2cc(C(=O)NCCSC)ccc2SC)cc1 [D] | 100

---

Tested on: acyl coenzyme-A:cholesterol-O-acyl transferase (ACAT;EC 2.3.1.26)
Assay: In vitro inhibition of ACAT in liver microsomes from cholesterol-fed rats, incubated with radiolabelled oleoyl-CoA
Assay type: biochemical
Details: 1 μg/ml, rat liver microsomes
In-vitro % Inhibition (degree of ACAT inhibition): recorded values
REPORTED_PROPERTY: In-vitro % Inhibition (degree of ACAT inhibition) (%)

• CCCCCCCCCOc1ccc(C(=O)Nc2cc(C(=O)NCCSC)ccc2OC)cc1 = 87
• CCCCCCCCCCSc1ccc(C(=O)Nc2cc(C(=O)NCCCC)ccc2OC)cc1 = 91
• CCCCCCCCCCOc1ccc(C(=O)Nc2cc(C(=O)NCCOC)ccc2SC)cc1 = 82
• CCCCCCCCCCOc1ccc(C(=O)Nc2cc(C(=O)NCCSC)ccc2OC)cc1 = 83
• CCCCCCCCCCSc1ccc(C(=O)Nc2cc(C(=O)NCCSC)ccc2SC)cc1 = 94
• CCCCCCCCCCOc1ccc(C(=O)Nc2cc(C(=O)NCCSC)ccc2SC)cc1 = 98
